Values were extracted from patent US20100260765A1.

# system tested: KDR (human, UniProt P35968 20-1356)
# Sequence (P35968 20-1356): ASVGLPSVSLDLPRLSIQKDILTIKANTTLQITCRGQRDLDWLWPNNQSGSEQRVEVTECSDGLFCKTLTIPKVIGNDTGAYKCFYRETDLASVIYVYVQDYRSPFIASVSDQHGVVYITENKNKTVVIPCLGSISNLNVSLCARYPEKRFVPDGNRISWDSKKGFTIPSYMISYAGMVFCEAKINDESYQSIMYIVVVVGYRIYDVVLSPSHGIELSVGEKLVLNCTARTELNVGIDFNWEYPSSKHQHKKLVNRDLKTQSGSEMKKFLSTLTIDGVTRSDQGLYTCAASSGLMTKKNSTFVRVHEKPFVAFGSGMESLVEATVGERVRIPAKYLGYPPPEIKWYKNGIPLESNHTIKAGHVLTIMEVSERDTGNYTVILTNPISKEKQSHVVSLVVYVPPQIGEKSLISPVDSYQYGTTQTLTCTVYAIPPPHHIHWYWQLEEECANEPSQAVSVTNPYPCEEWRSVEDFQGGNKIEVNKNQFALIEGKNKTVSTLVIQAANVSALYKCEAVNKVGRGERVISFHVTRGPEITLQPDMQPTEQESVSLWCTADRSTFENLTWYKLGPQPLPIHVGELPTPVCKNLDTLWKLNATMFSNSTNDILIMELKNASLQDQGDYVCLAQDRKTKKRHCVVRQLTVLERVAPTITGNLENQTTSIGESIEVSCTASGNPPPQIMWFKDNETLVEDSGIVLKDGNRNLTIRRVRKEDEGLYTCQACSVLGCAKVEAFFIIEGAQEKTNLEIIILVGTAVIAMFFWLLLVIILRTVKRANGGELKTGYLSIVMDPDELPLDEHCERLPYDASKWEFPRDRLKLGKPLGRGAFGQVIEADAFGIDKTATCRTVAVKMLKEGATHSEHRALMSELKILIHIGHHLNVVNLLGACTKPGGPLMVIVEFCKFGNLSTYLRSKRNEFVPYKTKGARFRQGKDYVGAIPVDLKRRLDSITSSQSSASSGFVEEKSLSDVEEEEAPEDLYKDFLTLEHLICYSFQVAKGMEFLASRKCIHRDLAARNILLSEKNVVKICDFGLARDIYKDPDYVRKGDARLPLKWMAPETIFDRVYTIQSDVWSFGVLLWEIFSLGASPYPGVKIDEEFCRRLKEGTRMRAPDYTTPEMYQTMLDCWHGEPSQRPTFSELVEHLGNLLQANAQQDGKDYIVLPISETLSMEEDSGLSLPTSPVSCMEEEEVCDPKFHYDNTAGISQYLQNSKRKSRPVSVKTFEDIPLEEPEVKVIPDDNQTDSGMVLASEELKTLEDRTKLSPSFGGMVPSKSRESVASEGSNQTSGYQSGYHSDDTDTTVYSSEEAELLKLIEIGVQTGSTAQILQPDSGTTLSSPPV
# assay overview: cell-based or functional assay
endpoint name: Activity at 133 nM Antibody Concentration (% Survival Inhibition), N = 1
Don't forget the unit after the number, please.

Provide measured Activity at 133 nM Antibody Concentration (% Survival Inhibition), N = 1 value, entry: 27A3 (antibody, V domains shown) VH: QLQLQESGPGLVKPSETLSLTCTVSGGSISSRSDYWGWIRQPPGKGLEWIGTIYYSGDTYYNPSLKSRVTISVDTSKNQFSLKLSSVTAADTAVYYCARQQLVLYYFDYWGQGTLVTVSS VL: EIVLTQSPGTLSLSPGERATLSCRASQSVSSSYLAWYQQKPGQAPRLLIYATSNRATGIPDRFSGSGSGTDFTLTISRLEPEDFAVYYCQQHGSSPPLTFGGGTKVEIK 86%

Give the value of Activity at 133 nM Antibody Concentration (% Survival Inhibition), N = 1 reported for the following: 22B8 (antibody, V domains shown) VH: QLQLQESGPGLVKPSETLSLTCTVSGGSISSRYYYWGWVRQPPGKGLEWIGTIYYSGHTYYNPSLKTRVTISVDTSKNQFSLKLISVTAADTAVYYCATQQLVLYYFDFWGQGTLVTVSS VL: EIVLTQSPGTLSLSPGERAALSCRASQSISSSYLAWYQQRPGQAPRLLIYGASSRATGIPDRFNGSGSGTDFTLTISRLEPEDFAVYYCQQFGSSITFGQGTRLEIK 88%

Provide only the value of recorded Activity at 133 nM Antibody Concentration (% Survival Inhibition), N = 1 for 31E11 (antibody, V domains shown) VH: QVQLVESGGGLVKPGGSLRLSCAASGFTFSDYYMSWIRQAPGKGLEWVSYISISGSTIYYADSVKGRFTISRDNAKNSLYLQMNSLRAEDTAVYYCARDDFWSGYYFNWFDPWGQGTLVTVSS VL: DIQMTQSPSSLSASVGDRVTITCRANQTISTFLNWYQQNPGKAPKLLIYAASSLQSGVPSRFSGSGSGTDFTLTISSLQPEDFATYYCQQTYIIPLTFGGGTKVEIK 83%

Fill in reported Activity at 133 nM Antibody Concentration (% Survival Inhibition), N = 1 for this entry: 33C3 (antibody, V domains shown) VH: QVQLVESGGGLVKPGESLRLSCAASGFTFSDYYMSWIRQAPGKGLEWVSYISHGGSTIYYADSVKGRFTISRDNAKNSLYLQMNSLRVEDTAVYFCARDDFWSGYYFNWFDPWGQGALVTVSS VL: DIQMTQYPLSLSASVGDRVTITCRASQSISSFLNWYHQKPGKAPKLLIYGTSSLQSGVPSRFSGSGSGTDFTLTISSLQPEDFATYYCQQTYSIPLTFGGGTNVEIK 104%

Given the binder 21H9 (antibody, V domains shown) VH: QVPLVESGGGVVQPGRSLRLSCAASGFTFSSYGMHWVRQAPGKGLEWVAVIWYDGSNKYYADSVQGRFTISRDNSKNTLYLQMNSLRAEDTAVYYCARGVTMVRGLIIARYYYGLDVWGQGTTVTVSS VL: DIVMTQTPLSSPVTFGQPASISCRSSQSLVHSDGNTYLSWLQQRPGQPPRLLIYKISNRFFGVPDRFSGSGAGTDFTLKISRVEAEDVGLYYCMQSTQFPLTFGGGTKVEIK , write its reported Activity at 133 nM Antibody Concentration (% Survival Inhibition), N = 1. -20%

Give Activity at 133 nM Antibody Concentration (% Survival Inhibition), N = 1 for the following binder: 24B3 (antibody, V domains shown) VH: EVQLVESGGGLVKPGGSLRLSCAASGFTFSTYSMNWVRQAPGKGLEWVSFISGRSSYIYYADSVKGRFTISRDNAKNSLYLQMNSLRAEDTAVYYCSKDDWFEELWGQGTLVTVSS VL: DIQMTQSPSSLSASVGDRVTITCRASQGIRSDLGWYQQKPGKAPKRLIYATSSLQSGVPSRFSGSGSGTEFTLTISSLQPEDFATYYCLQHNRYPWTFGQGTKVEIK 65%

Provide one value: measured Activity at 133 nM Antibody Concentration (% Survival Inhibition), N = 1 of 30F6 (antibody, V domains shown) VH: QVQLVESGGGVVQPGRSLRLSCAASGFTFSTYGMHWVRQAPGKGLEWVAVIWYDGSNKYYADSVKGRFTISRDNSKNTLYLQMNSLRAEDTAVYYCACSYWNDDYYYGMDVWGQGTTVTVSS VL: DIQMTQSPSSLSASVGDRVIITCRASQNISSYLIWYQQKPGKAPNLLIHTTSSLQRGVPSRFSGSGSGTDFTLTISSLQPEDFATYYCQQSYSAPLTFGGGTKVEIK 91%

Return value of Activity at 133 nM Antibody Concentration (% Survival Inhibition), N = 1 for input 24C9 (antibody, V domains shown) VH: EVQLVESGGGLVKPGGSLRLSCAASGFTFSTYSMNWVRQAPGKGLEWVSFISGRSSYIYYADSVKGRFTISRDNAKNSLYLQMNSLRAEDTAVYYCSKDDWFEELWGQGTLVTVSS VL: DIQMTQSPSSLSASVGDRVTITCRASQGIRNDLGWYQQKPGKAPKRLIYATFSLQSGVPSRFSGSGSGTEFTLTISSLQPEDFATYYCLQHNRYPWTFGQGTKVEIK , no commentary. 57%

Item 29A3 (antibody, V domains shown) VH: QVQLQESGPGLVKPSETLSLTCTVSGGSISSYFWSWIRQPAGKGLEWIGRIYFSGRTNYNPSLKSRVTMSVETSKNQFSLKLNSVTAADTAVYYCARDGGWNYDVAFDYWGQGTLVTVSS VL: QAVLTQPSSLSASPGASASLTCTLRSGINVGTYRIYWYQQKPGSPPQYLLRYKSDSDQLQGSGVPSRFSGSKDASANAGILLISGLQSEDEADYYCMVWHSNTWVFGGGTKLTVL : provide Activity at 133 nM Antibody Concentration (% Survival Inhibition), N = 1 -65%

Give Activity at 133 nM Antibody Concentration (% Survival Inhibition), N = 1 for the following binder: 33B1 (antibody, V domains shown) VH: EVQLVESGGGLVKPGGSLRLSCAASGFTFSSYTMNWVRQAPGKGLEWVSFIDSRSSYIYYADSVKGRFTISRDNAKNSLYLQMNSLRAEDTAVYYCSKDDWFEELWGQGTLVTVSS VL: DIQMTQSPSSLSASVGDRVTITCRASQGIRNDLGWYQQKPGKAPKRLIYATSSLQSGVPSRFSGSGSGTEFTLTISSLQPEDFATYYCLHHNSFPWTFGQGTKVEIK 80%
